- Tested on: KNS-62 (Squamous Cell Lung Carcinoma)
- assay-method-text: combination Emax (second highest fraction inhibited in the dose matrix, 72 h); higher = more inhibition; extreme values may be limits of the assay
Provide the reported combination Emax of each item.

combination Emax lookup needed for Cc1c2c(nn1C)CSCc1cc(n(C)n1)CSc1cc(c3ccccc3c1)OCCCc1c(C(=O)O)n(C)c3c-2c(Cl)ccc13 [AZD5991] + C[C@@H](Nc1cc(F)cc(F)c1)c1cc(C(=O)N(C)C)cc2c(=O)cc(N3CCOCC3)oc12 [AZD8186] (first compound max 1 µM, 7x7, partner max 3 µM) , thanks.
0.17

// returns reported combination Emax for input Cn1cnc2c(F)c(Nc3ccc(Br)cc3Cl)c(C(=O)NOCCO)cc21 [Selumetinib] + CCN(CCO)CCCOc1ccc2c(Nc3cc(CC(=O)Nc4cccc(F)c4)[nH]n3)ncnc2c1 [AZD2811] (first compound max 10 µM, 7x7, partner max 1 µM)
0.495

For the molecule COc1cccc(OCCCN)c1-c1cc(Nc2cnc(C#N)cn2)n[nH]1 [Prexasertib] + O=C(c1cc(Cc2n[nH]c(=O)c3ccccc23)ccc1F)N1CCN(C(=O)C2CC2)CC1 [Olaparib] (first compound max 1 µM, 7x7, partner max 10 µM) , what combination Emax is on record?
0.576

---

- Test system: SNU-1 (Gastric Carcinoma)
- assay-method-text: combination Emax (second highest fraction inhibited in the dose matrix, 72 h); higher = more inhibition; extreme values may be limits of the assay
For each record, write down the corresponding combination Emax.
Reply: number alone, nothing else.

Return reported combination Emax; argument: Cc1c2c(nn1C)CSCc1cc(n(C)n1)CSc1cc(c3ccccc3c1)OCCCc1c(C(=O)O)n(C)c3c-2c(Cl)ccc13 [AZD5991] + C[C@@H]1COCCN1C2=NC(=NC(=C2)C3(CC3)[S@](=N)(=O)C)C4=C5C=CNC5=NC=C4 [AZD6738] (first compound max 1 µM, 7x7, partner max 10 µM)
0.794

Query: combination Emax; subject: CN(CCO)CC[C@H](CSc1ccccc1)Nc1ccc(S(=O)(=O)NC(=O)c2ccc(N3CCC([C@@H](O)c4ccccc4-c4ccc(Cl)cc4)CC3)cc2)cc1S(=O)(=O)C(F)(F)F [AZD4320] + Cn1cnc2c(F)c(Nc3ccc(Br)cc3Cl)c(C(=O)NOCCO)cc21 [Selumetinib] (first compound max 1 µM, 7x7, partner max 3 µM)
0.952

What does the data say about its combination Emax? Entry: Cc1c2c(nn1C)CSCc1cc(n(C)n1)CSc1cc(c3ccccc3c1)OCCCc1c(C(=O)O)n(C)c3c-2c(Cl)ccc13 [AZD5991] + CCN(CCO)CCCOc1ccc2c(Nc3cc(CC(=O)Nc4cccc(F)c4)[nH]n3)ncnc2c1 [AZD2811] (first compound max 1 µM, 7x7, partner max 1 µM)
0.551

Query (compound): COc1nnc2ccc(N3CCC(c4ccc(OCCN5CCN(C)C(=O)[C@H]5C)cc4)CC3)nn12 [AZD5153] + CC1(C)CCC(CN2CCN(c3ccc(C(=O)NS(=O)(=O)c4ccc(NCC5CCOCC5)c([N+](=O)[O-])c4)c(Oc4cnc5[nH]ccc5c4)c3)CC2)=C(c2ccc(Cl)cc2)C1 [Venetoclax] (first compound max 1 µM, 7x7, partner max 1 µM) ; field requested: combination Emax
0.645

Consider the compound shown here: CC(=O)c1c(C)c2cnc(Nc3ccc(N4CCNCC4)cn3)nc2n(C2CCCC2)c1=O [Palbociclib] + Cc1c2c(nn1C)CSCc1cc(n(C)n1)CSc1cc(c3ccccc3c1)OCCCc1c(C(=O)O)n(C)c3c-2c(Cl)ccc13 [AZD5991] (first compound max 10 µM, 7x7, partner max 1 µM) What is its recorded combination Emax?
0.805

Entry Cc1c2c(nn1C)CSCc1cc(n(C)n1)CSc1cc(c3ccccc3c1)OCCCc1c(C(=O)O)n(C)c3c-2c(Cl)ccc13 [AZD5991] + C1CN(CCC1(C(=O)N[C@@H](CCO)C2=CC=C(C=C2)Cl)N)C3=NC=NC4=C3C=CN4 [Capivasertib] (first compound max 1 µM, 7x7, partner max 3 µM) : reported combination Emax = ?
0.613

combination Emax for Cc1cc2ncnn2cc1Nc1ncc2c(n1)n(C1CCOCC1)c(=O)n2C [AZD7648] + C=CCn1c(=O)c2cnc(Nc3ccc(N4CCN(C)CC4)cc3)nc2n1-c1cccc(C(C)(C)O)n1 [AZD1775] (first compound max 10 µM, partner max 1 µM) ?
0.628

// returns reported combination Emax for input NC1(C(=O)N[C@@H](CCO)c2ccc(Cl)cc2)CCN(c2ncnc3[nH]ccc23)CC1 [Capivasertib] + COc1nnc2ccc(N3CCC(c4ccc(OCCN5CCN(C)C(=O)[C@H]5C)cc4)CC3)nn12 [AZD5153] (first compound max 10 µM, 7x7, partner max 1 µM)
0.652

Quick check: combination Emax of Cn1cnc2c(F)c(Nc3ccc(Br)cc3Cl)c(C(=O)NOCCO)cc21 [Selumetinib] + CC(C)n1c(=O)n(C)c2cnc3cc(F)c(-c4ccc(OCCCN5CCCCC5)nc4)cc3c21 [AZD1390] (first compound max 10 µM, 7x7, partner max 0.3 µM) ?
0.384

Look up combination Emax: CC1(C)CCC(CN2CCN(c3ccc(C(=O)NS(=O)(=O)c4ccc(NCC5CCOCC5)c([N+](=O)[O-])c4)c(Oc4cnc5[nH]ccc5c4)c3)CC2)=C(c2ccc(Cl)cc2)C1 [Venetoclax] + CCN(CCO)CCCOc1ccc2c(Nc3cc(CC(=O)Nc4cccc(F)c4)[nH]n3)ncnc2c1 [AZD2811] (first compound max 1 µM, 7x7, partner max 1 µM)
0.297

Consider the compound shown here: CCN(CCO)CCCOc1ccc2c(Nc3cc(CC(=O)Nc4cccc(F)c4)[nH]n3)ncnc2c1 [AZD2811] + C[C@@H]1COCCN1C2=NC(=NC(=C2)C3(CC3)[S@](=N)(=O)C)C4=C5C=CNC5=NC=C4 [AZD6738] (first compound max 1 µM, 7x7, partner max 10 µM) What is its recorded combination Emax?
0.73

Which measured combination Emax value corresponds to CC(=O)c1c(C)c2cnc(Nc3ccc(N4CCNCC4)cn3)nc2n(C2CCCC2)c1=O [Palbociclib] + CC1(C)CCC(CN2CCN(c3ccc(C(=O)NS(=O)(=O)c4ccc(NCC5CCOCC5)c([N+](=O)[O-])c4)c(Oc4cnc5[nH]ccc5c4)c3)CC2)=C(c2ccc(Cl)cc2)C1 [Venetoclax] (first compound max 10 µM, 7x7, partner max 1 µM) ?
0.451

Fill in the blank: the reported combination Emax of COc1cccc(OCCCN)c1-c1cc(Nc2cnc(C#N)cn2)n[nH]1 [Prexasertib] + Cc1cc2ncnn2cc1Nc1ncc2c(n1)n(C1CCOCC1)c(=O)n2C [AZD7648] (first compound max 1 µM, 7x7, partner max 10 µM) is ____.
0.84

I'd like to know its combination Emax. The compound in question is CN(CCO)CC[C@H](CSc1ccccc1)Nc1ccc(S(=O)(=O)NC(=O)c2ccc(N3CCC([C@@H](O)c4ccccc4-c4ccc(Cl)cc4)CC3)cc2)cc1S(=O)(=O)C(F)(F)F [AZD4320] + CCN(CCO)CCCOc1ccc2c(Nc3cc(CC(=O)Nc4cccc(F)c4)[nH]n3)ncnc2c1 [AZD2811] (first compound max 1 µM, 7x7, partner max 1 µM)
0.541
